- TARGET: hTLR7 (Homo sapiens, UniProt Q9NYK1)
- Sequence (Q9NYK1 27-1049): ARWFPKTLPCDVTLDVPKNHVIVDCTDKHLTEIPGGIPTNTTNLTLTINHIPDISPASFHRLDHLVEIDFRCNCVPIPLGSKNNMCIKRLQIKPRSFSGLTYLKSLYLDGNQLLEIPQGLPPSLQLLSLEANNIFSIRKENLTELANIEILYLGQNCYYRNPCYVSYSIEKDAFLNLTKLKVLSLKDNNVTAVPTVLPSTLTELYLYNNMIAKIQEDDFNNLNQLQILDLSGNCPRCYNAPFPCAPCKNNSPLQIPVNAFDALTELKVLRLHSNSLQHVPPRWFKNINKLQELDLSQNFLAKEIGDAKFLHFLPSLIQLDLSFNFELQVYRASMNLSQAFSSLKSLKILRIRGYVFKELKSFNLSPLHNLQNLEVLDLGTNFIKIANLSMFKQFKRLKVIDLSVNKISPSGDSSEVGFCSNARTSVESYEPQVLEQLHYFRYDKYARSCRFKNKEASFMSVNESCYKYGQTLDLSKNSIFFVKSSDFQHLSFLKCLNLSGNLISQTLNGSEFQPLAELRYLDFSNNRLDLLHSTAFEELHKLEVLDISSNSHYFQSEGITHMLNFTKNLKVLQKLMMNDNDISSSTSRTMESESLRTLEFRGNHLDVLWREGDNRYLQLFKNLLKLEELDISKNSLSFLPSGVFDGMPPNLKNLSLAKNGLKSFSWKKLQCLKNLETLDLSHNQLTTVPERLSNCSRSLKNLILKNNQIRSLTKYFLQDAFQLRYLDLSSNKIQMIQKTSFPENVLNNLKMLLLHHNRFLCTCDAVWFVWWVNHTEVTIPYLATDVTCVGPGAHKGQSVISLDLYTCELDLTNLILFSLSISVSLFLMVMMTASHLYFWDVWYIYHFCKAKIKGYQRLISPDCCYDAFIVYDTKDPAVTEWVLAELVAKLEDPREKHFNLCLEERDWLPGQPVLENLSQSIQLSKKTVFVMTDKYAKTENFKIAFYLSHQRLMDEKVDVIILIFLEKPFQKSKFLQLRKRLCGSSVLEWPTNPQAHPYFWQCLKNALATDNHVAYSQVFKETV
- TEST DESCRIPTION: Activation activity test of hTLR7 (HEK-Blue hTLR7 cells, QUANTI-Blue OD650)
- COND: 24 hours incubation, read-out: TLR7 (EC50)
Quick list: EC50 per entry.

Solved cases below.
# input Any idea what EC50 was measured for COCCOc1ncc2[nH]c(=O)n(Cc3cccc(CN4CCN(C)CC4)c3)c2n1 ?
# output 10 to 100 µM

# input Any idea what EC50 was measured for COCCOc1ncc2[nH]c(=O)n(Cc3ccc(CN4CC5CC(C5)C4)cc3)c2n1 ?
# output 1 to 10 µM

# input Any idea what EC50 was measured for CCC(c1ccc(Cn2c(=O)[nH]c3cnc(OCCOC)nc32)cc1)N1CCCC1 (stereo not drawn) ?
# output 1 to 10 µM

# input Any idea what EC50 was measured for CCCC[S+]([O-])c1ncc2[nH]c(=O)n(Cc3cccc(CN4CCCC4)c3)c2n1 (stereo not drawn) ?
# output > 100 µM

Further cases:
# input Any idea what EC50 was measured for COCCOc1ncc2[nH]c(=O)n(Cc3ccc(CN(C)C)cc3)c2n1 ?
# output 1 to 10 µM

# input Any idea what EC50 was measured for COCCOc1ncc2[nH]c(=O)n(Cc3cccc(C(C)N4CCCC4)c3)c2n1 (stereo not drawn) ?
# output 10 to 100 µM

# input Any idea what EC50 was measured for COCCOc1ncc2[nH]c(=O)n(Cc3ccc(CN4CCCC4)cc3)c2n1 ?
# output 1 to 10 µM

# input Any idea what EC50 was measured for COCCOc1ncc2[nH]c(=O)n(Cc3ccc(CN4CCC4)cc3)c2n1 ?
# output 10 to 100 µM

# input Any idea what EC50 was measured for COCCOc1ncc2[nH]c(=O)n(Cc3ccc(C(C)N4CCCCCC4)cc3)c2n1 (stereo not drawn) ?
# output 0.001 to 1 µM
